System: Rattus norvegicus
assayMethodText: Volume of distribution at steady state in rat at 2 mg/kg, iv
Assay type: ADME, organism-based
Design: dose 2 mg/kg, route intravenous
measurementConditions: in vivo
observationType: Vdss

>>> testvalue("Cc1c(OCCCCOc2ccc(F)c(C(=O)O)c2)ccc(C(=O)CC(C)C)c1O")
"0.89 L/kg"
>>> testvalue("COc1cc(C(=O)O)ccc1OCCCCOc1ccc(C(=O)CC(C)C)c(O)c1C")
"0.55 L/kg"
>>> testvalue("Cc1c(OCCCCOc2ccc(C(=O)O)cc2)ccc(C(=O)CC(C)C)c1O")
"0.81 L/kg"

Please find the next molecule below.
Briefly, Vdss measured for COc1ccc(C(=O)O)cc1OCCCCOc1ccc(C(=O)CC(C)C)c(O)c1C : 2.87 L/kg

* * *

assayMethodText: Tmax in rat at 10 mg/kg, ip
Type: ADME, organism-based
Design: dose 10 mg/kg, route intraperitoneal
measurementConditions: in vivo
observationType: Tmax (min)
# value in min; strip the unit string

For orientation, consider the following solved cases.
>>> testvalue("COc1ccc(C(=O)O)cc1OCCCCOc1ccc(C(=O)CC(C)(C)C)c(O)c1C")
30
>>> testvalue("CCC(=O)c1ccc(OCCCCOc2ccc(F)c(C(=O)O)c2)c(C)c1O")
30
>>> testvalue("Cc1c(OCCCCOc2ccc(F)c(C(=O)O)c2)ccc(C(=O)CC(C)(C)C)c1O")
30

Briefly, Tmax measured for COc1cc(C(=O)O)ccc1OCCCCOc1ccc(C(=O)CC(C)C)c(O)c1C : 30

Briefly, Tmax measured for COc1cc(C(=O)O)ccc1OCCCCOc1ccc(C(=O)CC(C)(C)C)c(O)c1C : 30

Briefly, Tmax measured for Cc1c(OCCCCOc2ccc(C(=O)CC(C)(C)C)c(O)c2C)cccc1C(=O)O : 30

Briefly, Tmax measured for CCCC(=O)c1ccc(OCCCCOc2cc(C(=O)O)ccc2OC)c(C)c1O : 30

* * *

Tested on: Rattus norvegicus
assayMethodText: Tmax in rat at 20 mg/kg, po
Assay type: ADME, organism-based
Parameters: dose 20 mg/kg, route oral
measurementConditions: in vivo
observationType: Tmax (h)
# value in h; strip the unit string

For orientation, consider the following solved cases.
>>> testvalue("COc1ccc(C(=O)O)cc1OCCCCOc1ccc(C(=O)CC(C)C)c(O)c1C")
1.6
>>> testvalue("Cc1c(OCCCCOc2ccc(F)c(C(=O)O)c2)ccc(C(=O)CC(C)C)c1O")
0.5
>>> testvalue("Cc1c(OCCCCOc2ccc(C(=O)O)cc2)ccc(C(=O)CC(C)C)c1O")
2.25

Briefly, Tmax measured for COc1cc(C(=O)O)ccc1OCCCCOc1ccc(C(=O)CC(C)C)c(O)c1C : 1.5

* * *

System: Rattus norvegicus
assayMethodText: Cmax in rat at 2 mg/kg, iv
Type: ADME, organism-based
Parameters: dose 2 mg/kg, route intravenous
measurementConditions: in vivo
Catalogue of Cmax values

For orientation, consider the following solved cases.
>>> testvalue("Cc1c(OCCCCOc2ccc(C(=O)O)cc2)ccc(C(=O)CC(C)C)c1O")
"5 µM"
>>> testvalue("Cc1c(OCCCCOc2ccc(F)c(C(=O)O)c2)ccc(C(=O)CC(C)C)c1O")
"3.52 µM"

Briefly, Cmax measured for COc1ccc(C(=O)O)cc1OCCCCOc1ccc(C(=O)CC(C)C)c(O)c1C : 2.15 µM

Briefly, Cmax measured for COc1cc(C(=O)O)ccc1OCCCCOc1ccc(C(=O)CC(C)C)c(O)c1C : 6.43 µM

* * *

System: Rattus norvegicus
assayMethodText: AUC (0 to t) in rat at 20 mg/kg, po
Format: ADME, organism-based, Plasma
Design: dose 20 mg/kg, route oral
measurementConditions: in vivo
observationType: AUCt (µmol·min/L)
# value in µmol·min/L; strip the unit string

>>> testvalue("COc1ccc(C(=O)O)cc1OCCCCOc1ccc(C(=O)CC(C)C)c(O)c1C")
466.2

Briefly, AUCt measured for Cc1c(OCCCCOc2ccc(C(=O)O)cc2)ccc(C(=O)CC(C)C)c1O : 544.8

Briefly, AUCt measured for COc1cc(C(=O)O)ccc1OCCCCOc1ccc(C(=O)CC(C)C)c(O)c1C : 1274.6

Briefly, AUCt measured for Cc1c(OCCCCOc2ccc(F)c(C(=O)O)c2)ccc(C(=O)CC(C)C)c1O : 720.5

* * *

Tested on: Rattus norvegicus
assayMethodText: AUC (0 to t) in rat at 2 mg/kg, iv
Type: ADME, organism-based, Plasma
Design: dose 2 mg/kg, route intravenous
measurementConditions: in vivo
observationType: AUCt

>>> testvalue("Cc1c(OCCCCOc2ccc(F)c(C(=O)O)c2)ccc(C(=O)CC(C)C)c1O")
"123.7 µmol·min/L"
>>> testvalue("COc1ccc(C(=O)O)cc1OCCCCOc1ccc(C(=O)CC(C)C)c(O)c1C")
"77.2 µmol·min/L"
>>> testvalue("COc1cc(C(=O)O)ccc1OCCCCOc1ccc(C(=O)CC(C)C)c(O)c1C")
"304.6 µmol·min/L"

Please find the next compound below.
Briefly, AUCt measured for Cc1c(OCCCCOc2ccc(C(=O)O)cc2)ccc(C(=O)CC(C)C)c1O : 231.7 µmol·min/L

* * *

Test system: Rattus norvegicus
assayMethodText: Cmax in rat at 20 mg/kg, po
Format: ADME, organism-based
Design: dose 20 mg/kg, route oral
measurementConditions: in vivo
observationType: Cmax (nM)
# value in nM; strip the unit string

For orientation, consider the following solved cases.
>>> testvalue("COc1cc(C(=O)O)ccc1OCCCCOc1ccc(C(=O)CC(C)C)c(O)c1C")
2750
>>> testvalue("Cc1c(OCCCCOc2ccc(F)c(C(=O)O)c2)ccc(C(=O)CC(C)C)c1O")
12500
>>> testvalue("Cc1c(OCCCCOc2ccc(C(=O)O)cc2)ccc(C(=O)CC(C)C)c1O")
2570

Briefly, Cmax measured for COc1ccc(C(=O)O)cc1OCCCCOc1ccc(C(=O)CC(C)C)c(O)c1C : 1050

* * *

Tested on: Plasma
assayMethodText: Plasma concentration in rat at 20 mg/kg, po
Format: ADME, organism-based
Parameters: dose 20 mg/kg, route oral
measurementConditions: in vivo
observationType: concentration
Be sure to follow the number with its unit.

For orientation, consider the following solved cases.
>>> testvalue("COc1cc(C(=O)O)ccc1OCCCCOc1ccc(C(=O)CC(C)C)c(O)c1C")
"16.4 µM"
>>> testvalue("Cc1c(OCCCCOc2ccc(F)c(C(=O)O)c2)ccc(C(=O)CC(C)C)c1O")
"4.23 µM"

Briefly, concentration measured for Cc1c(OCCCCOc2ccc(C(=O)O)cc2)ccc(C(=O)CC(C)C)c1O : 5.29 µM
